# experimental-system: human LPA1 (Homo sapiens, UniProt Q92633)
# Construct: expressed in transfected cells; host or cells: Chinese hamster ovary (CHO) cells
# Sequence (Q92633 whole entry): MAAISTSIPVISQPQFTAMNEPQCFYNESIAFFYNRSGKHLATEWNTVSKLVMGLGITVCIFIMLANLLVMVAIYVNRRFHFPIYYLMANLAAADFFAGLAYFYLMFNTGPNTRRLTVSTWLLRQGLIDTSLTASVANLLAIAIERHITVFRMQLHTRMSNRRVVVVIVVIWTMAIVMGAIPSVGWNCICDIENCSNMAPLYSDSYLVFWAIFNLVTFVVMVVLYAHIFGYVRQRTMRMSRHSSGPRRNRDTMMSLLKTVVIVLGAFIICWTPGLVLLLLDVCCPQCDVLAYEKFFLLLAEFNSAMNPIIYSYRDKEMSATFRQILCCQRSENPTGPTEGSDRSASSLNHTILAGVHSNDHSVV
# assay-procedure: LPA1 functional antagonist assay (LPA-induced calcium flux in CHO cells overexpressing human LPA1)
# Assay type: cell-based
# condition-summary: inhibition of calcium flux induced by 10 nM LPA, CHO cells overexpressing human LPA1; read-out: hLPA1 IC50
Provide the recorded log10(IC50) for the entries that follow.
Heads up: the numbers are on a log10 scale; they represent IC50 in nM.

# query: log10(IC50) of entry Cc1nc(-c2nnn(C)c2Cc2noc(CCC(C)(F)F)n2)ccc1O[C@H]1CCC[C@H](C(=O)O)C1 [Example 227]
0.30

Param item: Cc1nc(-c2nnn(C)c2CNc2noc(C3CCOC3)n2)ccc1O[C@H]1CCC[C@H](C(=O)O)C1 (stereo partly shown) [Example 151]
2.06

Param item: Cc1nc(-c2nnn(C)c2Cn2nnc(OCc3ccccc3)n2)ccc1O[C@H]1CCC[C@H](C(=O)O)C1 [Example 342]
1.04

Param item: CCC(C)Cc1nc(NCc2c(-c3ccc(O[C@H]4CCC[C@H](C(=O)O)C4)cn3)nnn2C)no1 (mixture of isomers) [Example 290]
1.57

Param item: Cc1nc(-c2nnn(C)c2C(O)c2cn(Cc3ccccc3)nn2)ccc1O[C@H]1CCC[C@H](C(=O)O)C1 (stereo partly shown) [Example 78]
1.94

Param item: CCCOC(C)c1nc(NCc2c(-c3ccc(O[C@H]4CCC[C@H](C(=O)O)C4)c(C)n3)nnn2C)no1 (mixture of isomers) [Example 218]
1.54

Param item: Cc1nc(-c2nnn(C)c2Cn2nnc(CC3CCCC3)n2)ccc1O[C@H]1CCC[C@H](C(=O)O)C1 [Example 331]
0.85
